We begin with a simple list: items and their reported Half-life, Human liver S9.
testMethodNotes: Stability in liver S9 fraction
Assay type: in vitro ADME, human
conditionDetails: 0.8 mg/mL protein, 10 μM, 37 °C
Express the reported value numerically, then name its unit.

CCOC(=O)[C@@H](F)ON1C(=O)N2C[C@H]1C(C)=C[C@H]2C(N)=O	27 min

Q) Fill blank: measured Half-life, Human liver S9 of the compound CC1=C[C@@H](C(N)=O)N2C[C@@H]1N(O[C@H](F)C(=O)OC(C)C)C2=O is ____.
A) 39 min

Q) Fill blank: measured Half-life, Human liver S9 of the compound CCOC(=O)[C@H](F)ON1C(=O)N2C[C@H]1C(C)=C[C@H]2C(N)=O is ____.
A) 2.4 min

Q) Fill blank: measured Half-life, Human liver S9 of the compound CCOC(=O)[C@@H](F)ON1C(=O)N2C[C@H]1C=C(C)[C@H]2C(N)=O is ____.
A) 6.5 min

Q) Fill blank: measured Half-life, Human liver S9 of the compound CC1=C[C@@H](C(N)=O)N2C[C@@H]1N(O[C@@H](F)C(=O)OC(C)C)C2=O is ____.
A) 8.5 min

FYI, the data here is from paper PMC7927146.
